Catalogue of compounds with associated normalized growth
- test summary: chemical genetic growth profiling, strain panel (AID 1159580);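 further: tested at 20 µM; growth read once vehicle control cultures reached saturation at 30 °C; 1 = growth at the plate median or of vehicle wells; lower values mean less growth of the strain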
- reported conditions: S. cerevisiae deletion strains, growth OD, locus YHR094C, strain hxt1, active compounds read low
About 2,000 (36%) of roughly 5,500 compounds were called active. Not shown: some 18% with an inconclusive outcome. Some of the results follow.
recorded metric: normalized growth

[[record]]
compound = "C[n+]1cccc(C(=O)[O-])c1"
recorded_metric = "normalized growth"
number = 0.983

[[record]]
compound = "CCCCC1=NC2(CCCC2)C(=O)N1Cc1ccc(-c2ccccc2-c2nn[nH]n2)cc1"
recorded_metric = "normalized growth"
number = 0.992

[[record]]
compound = "COc1c2c(cc3c1OCO3)CCN(C)C2"
recorded_metric = "normalized growth"
number = 0.994

[[record]]
compound = "CC(C)(C)NC[C@@H](O)COc1nsnc1N1CCOCC1"
recorded_metric = "normalized growth"
number = 0.974

[[record]]
compound = "NC(=NCCC[C@H](N)C(=O)O)NC(CCC(=O)O)C(=O)O (stereo not given in full)"
recorded_metric = "normalized growth"
number = 1.01

[[record]]
compound = "NCC(O)c1ccc(O)cc1 (stereo not given)"
recorded_metric = "normalized growth"
number = 0.986

[[record]]
compound = "NCC(CC(=O)O)c1ccc(Cl)s1 (stereo not given)"
recorded_metric = "normalized growth"
number = 0.991

[[record]]
compound = "C1CCN2C[C@@H]3C[C@H](CN4CCCC[C@@H]34)[C@H]2C1"
recorded_metric = "normalized growth"
number = 0.995

[[record]]
compound = "C1CCN2CC3CC(CN4CCCCC34)C2C1 (stereo not given)"
recorded_metric = "normalized growth"
number = 1.01

[[record]]
compound = "CNC[C@@H](O)c1ccc(O)c(O)c1"
recorded_metric = "normalized growth"
number = 0.977


###

Catalogue of molecules with associated normalized growth
- test summary: chemical genetic growth profiling, strain panel (AID 1159580)
- reported conditions: S. cerevisiae deletion strains, growth OD, locus YDR335W, strain msn5, active compounds read low
In all, about 5,500 compounds went through this assay and about 2,000 (36%) were called active. Not shown: some 18% with an inconclusive outcome. The list shows a part of the results.
recorded metric: normalized growth

[[record]]
molecule = "CC(=O)O[C@@H]1CC2C(C)(C)C=CC(=O)[C@]2(C)C2CC[C@@]3(C)[C@H](c4ccoc4)OC(=O)C4OC43[C@@]21C (stereo partly specified)"
recorded_metric = "normalized growth"
number = 0.997

[[record]]
molecule = "Nc1ncn([C@@H]2O[C@H](CO)[C@@H](O)[C@H]2O)c(=O)n1"
recorded_metric = "normalized growth"
number = 0.98

[[record]]
molecule = "CC(=O)Nc1ccc(S(=O)(=O)c2ccc(NC(C)=O)cc2)cc1"
recorded_metric = "normalized growth"
number = 1.01

[[record]]
molecule = "C=CCC1(C(C)CCC)C(=O)N=C(S)NC1=O (stereo unspecified)"
recorded_metric = "normalized growth"
number = 0.964

[[record]]
molecule = "COc1cccc(/C=C/C(=O)O)c1C(C)C"
recorded_metric = "normalized growth"
number = 0.994

[[record]]
molecule = "C[n+]1cccc(C(=O)[O-])c1"
recorded_metric = "normalized growth"
number = 0.952


###

- test summary: chemical genetic growth profiling, strain panel (AID 1159580);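 further: tested at 20 µM; growth read once vehicle control cultures reached saturation at 30 °C; 1 = growth at the plate median or of vehicle wells; lower values mean less growth of the strain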
- reported conditions: S. cerevisiae deletion strains, growth OD, locus YOR106W, strain vam3, active compounds read low
The campaign covered roughly 5,500 compounds. About 2,000 (36%) were called active. Not shown: some 18% with an inconclusive outcome. This is one part of the list.
Catalogue of compounds with associated normalized growth
recorded metric: normalized growth

[[record]]
compound = "Oc1c(Br)cc(Br)c2cccnc12"
recorded_metric = "normalized growth"
result = "0.0686 (active)"

[[record]]
compound = "Cc1ccc2c(Cl)cc(Cl)c(O)c2n1"
recorded_metric = "normalized growth"
result = "1.01 (inactive)"

[[record]]
compound = "Nc1ccc(S(=O)(=O)Nc2ccc(Cl)nn2)cc1"
recorded_metric = "normalized growth"
result = "0.959 (inactive)"

[[record]]
compound = "Cc1occc(=O)c1O"
recorded_metric = "normalized growth"
result = "0.942 (inactive)"

[[record]]
compound = "CC1(C)CCCC2(C)C3C1[C@@H](O)C2(C)C[C@H]3O (some centres not stated)"
recorded_metric = "normalized growth"
result = "0.985 (inactive)"

[[record]]
compound = "Oc1c(Cl)cc(Cl)c2cccnc12"
recorded_metric = "normalized growth"
result = "0.0647 (active)"

[[record]]
compound = "O=C(OC1Cc2c(O)cc(O)cc2OC1c1cc(O)c(O)c(O)c1-c1c(C2Oc3cc(O)cc(O)c3CC2OC(=O)c2cc(O)c(O)c(O)c2)cc(O)c(O)c1O)c1cc(O)c(O)c(O)c1 (configuration not stated)"
recorded_metric = "normalized growth"
result = "0.648 (active)"


###

- test summary: chemical genetic growth profiling, strain panel (AID 1159580);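 further: tested at 20 µM; growth read once vehicle control cultures reached saturation at 30 °C; 1 = growth at the plate median or of vehicle wells; lower values mean less growth of the strain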
- reported conditions: S. cerevisiae deletion strains, growth OD, strain TSCII, active compounds read low
The campaign covered roughly 5,500 compounds. About 2,000 (36%) were called active. About 18% were inconclusive and are not listed. The list shows a part of the results.
Catalogue of compounds with associated normalized growth
recorded metric: normalized growth

[[record]]
compound = "CSc1ccc(/C=C(\\C)[N+](=O)[O-])cc1"
recorded_metric = "normalized growth"
number = 0.0882

[[record]]
compound = "Cc1cc(Br)ccc1-n1c(Sc2c([N+](=O)[O-])cc(C(F)(F)F)cc2[N+](=O)[O-])nc2ccccc2c1=O"
recorded_metric = "normalized growth"
number = 0.993

[[record]]
compound = "O=C(NC(=S)Nc1cccc(C(F)(F)F)c1)c1ccc2nonc2c1"
recorded_metric = "normalized growth"
number = 0.939

[[record]]
compound = "NC(=Nc1ccc(F)cc1)SCc1c(Cl)cccc1Cl"
recorded_metric = "normalized growth"
number = 1

[[record]]
compound = "Cc1cc(Cl)ccc1NC(=S)NNC(=S)Nc1ccc(F)cc1"
recorded_metric = "normalized growth"
number = 0.966

[[record]]
compound = "O=[N+]([O-])c1cc(Br)cnc1Sc1nnc(SCC2CC2)s1"
recorded_metric = "normalized growth"
number = 0.929

[[record]]
compound = "CSc1cc(-c2ccncc2)nc(-c2cccs2)c1"
recorded_metric = "normalized growth"
number = 0.951

[[record]]
compound = "N#CC(C#N)=C/C=C(/Sc1nc2ccccc2s1)c1ccc(Br)cc1"
recorded_metric = "normalized growth"
number = 0.157

[[record]]
compound = "OC(CNCc1ccc(Cl)cc1)CO/N=C\\C1=C(Cl)c2cc(Cl)ccc2OC1 (stereo not drawn)"
recorded_metric = "normalized growth"
number = 0.979

[[record]]
compound = "O=C(c1ccccc1)c1cc(Cl)ccc1NC(=S)Nc1ccc(F)cc1"
recorded_metric = "normalized growth"
number = 0.991

[[record]]
compound = "Cc1ccc(S(=O)(=O)CCSC2=CC(=O)CC(C)(C)S2)cc1"
recorded_metric = "normalized growth"
number = 1

[[record]]
compound = "CC(C)c1ccc(N2C=Nc3ccc(C(C)C)cc3C2)cc1"
recorded_metric = "normalized growth"
number = 1.01

[[record]]
compound = "Cc1c(C)c(C)c(CSC(N)=Nc2ccc(F)cc2)c(C)c1C"
recorded_metric = "normalized growth"
number = 0.998


###

- test summary: chemical genetic growth profiling, strain panel (AID 1159580);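 further: tested at 20 µM; growth read once vehicle control cultures reached saturation at 30 °C; 1 = growth at the plate median or of vehicle wells; lower values mean less growth of the strain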
- reported conditions: S. cerevisiae deletion strains, growth OD, locus YHR030C, strain SLT2, active compounds read low
Out of some 5,500 compounds screened, about 2,000 (36%) were called active. Not shown: some 18% with an inconclusive outcome. The list shows a part of the results.
Catalogue of compounds with associated normalized growth
recorded metric: normalized growth

[[record]]
compound = "CN(C)C=Nc1nnc(Sc2ncccc2[N+](=O)[O-])s1"
number = 1

[[record]]
compound = "COC(=O)c1cc(OC)c(OC)cc1-n1c(C)ccc1C"
number = 0.999

[[record]]
compound = "O=C(O)CF"
number = 0.988

[[record]]
compound = "CC(=O)Nc1ccc(/C=C/[N+](=O)[O-])cc1"
number = 0.697

[[record]]
compound = "CC(C)=CCC/C(C)=C/CC/C(C)=C/CC/C(C)=C/CC/C(C)=C/CC/C(C)=C/CC/C(C)=C/CC/C(C)=C/CC/C(C)=C/CO"
number = 1.02

[[record]]
compound = "CC1(C)C(O)CC(O)C2(C)C1CC(=O)C1(C)C2CCC2(C)C(C(=O)O)OC(=O)C3OC321 (stereo not given)"
number = 1.01

[[record]]
compound = "CC(C)=CCC/C(C)=C/CC/C(C)=C/CC/C(C)=C/CO"
number = 1.06

[[record]]
compound = "CC(C)=CCC/C(C)=C/CC/C(C)=C/CO"
number = 0.416

[[record]]
compound = "O=C(NC(=S)Nc1ccccn1)c1ccccc1"
number = 0.401

[[record]]
compound = "CCC(C(=O)Nc1ccc(C(F)(F)F)cc1)c1ccccc1 (stereo not given)"
number = 0.986

[[record]]
compound = "O=C(O)C1=CCNCC1"
number = 1.04

[[record]]
compound = "CC(C)c1ccc(N2C=Nc3ccc(C(C)C)cc3C2)cc1"
number = 0.898

[[record]]
compound = "O=C(O)CCC(=O)C(=O)O"
number = 1.01

[[record]]
compound = "CC(=O)Nc1ccc(S(=O)(=O)c2ccc(NC(C)=O)cc2)cc1"
number = 1.07

[[record]]
compound = "O=C(c1ccccc1)c1cc(Cl)ccc1NC(=S)Nc1ccc(F)cc1"
number = 0.97

[[record]]
compound = "O=C(N/N=C\\C=C\\c1ccccc1)c1ccccc1-n1cccc1"
number = 0.925

[[record]]
compound = "O=C(O)/C=C/c1ccccc1"
number = 0.834

[[record]]
compound = "C=C[C@](C)(O)CCC=C(C)C"
number = 1.01

[[record]]
compound = "C=C(C)C1CC=C(CO)CC1 (stereo not given)"
number = 1.06

[[record]]
compound = "Cc1oc(S(=O)(=O)N(C)C)cc1C(=O)O"
number = 1.06

